- assay summary: Solubility determination of crystal form C of tromethamine salt
- Assay type: physicochemical
- condition details: 37 °C, thermodynamic from solid, FeSSIF, 37 degrees
experimental endpoint: solubility at 24 h (µg/mL)
Give bare numbers, in µg/mL.

Task: solubility at 24 h lookup needed for O=C(O)c1ccc2nc(CN3CCC(c4cccc5c4OC(c4ccc(Cl)cc4F)C=C5)CC3)n(CC3CCO3)c2c1 (stereo not shown) , thanks.
Result: 756

###

- assay summary: Solubility determination of crystal form C of tromethamine salt
- Type: physicochemical
- condition details: 37 °C, thermodynamic from solid, FaSSIF, 37 degrees
experimental endpoint: solubility at 24 h

Task: solubility at 24 h lookup needed for O=C(O)c1ccc2nc(CN3CCC(c4cccc5c4OC(c4ccc(Cl)cc4F)C=C5)CC3)n(CC3CCO3)c2c1 (stereo not shown) , thanks.
Result: 478 µg/mL
